// values below are reported pIC50
Molecular target: full-length beta-Catenin (Uniprot ID P35222) (Homo sapiens)
Construct: 10 nM full-length beta-Catenin (Uniprot ID P35222)
Sequence (P35222 whole entry): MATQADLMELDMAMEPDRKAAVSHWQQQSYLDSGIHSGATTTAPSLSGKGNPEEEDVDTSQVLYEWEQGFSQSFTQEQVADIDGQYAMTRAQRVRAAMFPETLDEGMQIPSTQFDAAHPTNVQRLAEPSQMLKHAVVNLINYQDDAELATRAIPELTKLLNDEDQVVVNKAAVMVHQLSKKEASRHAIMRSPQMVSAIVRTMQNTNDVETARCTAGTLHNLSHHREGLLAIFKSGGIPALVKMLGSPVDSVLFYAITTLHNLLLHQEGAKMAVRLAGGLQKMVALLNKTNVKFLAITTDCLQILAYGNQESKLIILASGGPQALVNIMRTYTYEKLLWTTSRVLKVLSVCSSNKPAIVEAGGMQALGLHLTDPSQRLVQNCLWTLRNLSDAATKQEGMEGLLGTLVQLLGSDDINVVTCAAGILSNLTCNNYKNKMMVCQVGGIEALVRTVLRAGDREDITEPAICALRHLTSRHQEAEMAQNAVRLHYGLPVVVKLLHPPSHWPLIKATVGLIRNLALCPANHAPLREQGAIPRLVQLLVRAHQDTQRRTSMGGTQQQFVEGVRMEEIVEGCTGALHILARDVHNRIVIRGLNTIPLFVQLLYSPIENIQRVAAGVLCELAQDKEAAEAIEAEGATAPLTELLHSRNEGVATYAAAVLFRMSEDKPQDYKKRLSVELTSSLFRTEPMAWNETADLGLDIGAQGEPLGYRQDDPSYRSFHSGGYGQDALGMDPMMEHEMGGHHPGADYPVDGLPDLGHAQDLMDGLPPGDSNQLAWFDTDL
Experiment: Fluorescence polarization IC50 (beta-catenin / 5FAM-TCF4 10-53 competition)
Format: binding
Settings: fluorescence polarization; read-out: beta-Catenin FP IC50
pIC50: −log10 of the molar value.
Recorded metric: pIC50

Compound	Experimental target	Readout value
CC(=O)N1CCC[C@]12CC=CCCCC1(CCCC=CCCCOC(=O)N3CC[C@@](C(=O)N[C@@H](Cc4ccccc4C(F)(F)F)C(=O)N[C@@H](Cc4csc5ccccc45)C(=O)N[C@@H](CCC(=O)N4CCOCC4)C(N)=O)(C3)NC(=O)[C@H](CC(C)C)NC(=O)[C@H](Cc3ccccc3)NC(=O)[C@H](C)NC(=O)[C@H](C)NC(=O)[C@H](Cc3cccc(C(=O)O)c3)NC(=O)[C@H](CC(=O)O)NC1=O)NC(=O)[C@H](CC(C)(C)C)NC(=O)[C@H](CC(=O)O)NC2=O (stereo partly shown) [I-2541]	full-length beta-Catenin (Uniprot ID P35222) (Homo sapiens)	7.68
CC(=O)N1CCC[C@]12CC=CCCCC1(CCCC=CCCCCCC[C@@](C)(C(=O)N[C@@H](Cc3ccccc3)C(=O)N[C@@H](Cc3csc4ccccc34)C(=O)N[C@@H](Cc3c[nH]cn3)C(=O)N[C@@H](C)C(N)=O)NC(=O)[C@H](CC(N)=O)NC(=O)[C@H](Cc3ccccc3)NC(=O)[C@H](C)NC(=O)[C@H](C)NC(=O)[C@H](CCC(=O)O)NC(=O)[C@H](CC(=O)O)NC1=O)NC(=O)[C@H](CC(C)C)NC(=O)[C@H](CC(=O)O)NC2=O (stereo partly shown) [I-738]	full-length beta-Catenin (Uniprot ID P35222) (Homo sapiens)	7.20
CC(C)C[C@H](NC(=O)[C@]12CCN(C1)C(=O)OCCCC=CCCCC1(CCCC=CCCCC(=O)N3CCC[C@@]3(C)C(=O)N[C@@H](CC(=O)O)C(=O)N1)C(=O)N[C@@H](C)C(=O)N[C@@H](CC(=O)O)C(=O)N[C@@H](CC(=O)O)C(=O)N[C@@H](C)C(=O)N[C@@H](C)C(=O)N[C@@H](Cc1ccccc1)C(=O)N2)C(=O)N[C@@H](Cc1ccsc1)C(=O)N[C@@H](Cc1csc2ccccc12)C(=O)N[C@@H](CCC(N)=O)C(N)=O (stereo partly shown) [I-2598]	full-length beta-Catenin (Uniprot ID P35222) (Homo sapiens)	5.87
CC(=O)N1CCC[C@]12CC=CCCCC1(CCCC=CCCCOC(=O)N3CC[C@@](C(=O)N[C@@H](Cc4ccccc4C(F)(F)F)C(=O)N[C@@H](Cc4csc5ccccc45)C(=O)N[C@@H](CCCN4CCOCC4)C(N)=O)(C3)NC(=O)[C@H](CC(C)C)NC(=O)[C@H](Cc3ccccc3)NC(=O)[C@H](C)NC(=O)[C@H](C)NC(=O)[C@H](Cc3cccc(C(=O)O)c3)NC(=O)[C@H](CC(=O)O)NC1=O)NC(=O)[C@H](CC(C)(C)C)NC(=O)[C@H](CC(=O)O)NC2=O (stereo partly shown) [I-1610]	full-length beta-Catenin (Uniprot ID P35222) (Homo sapiens)	7.72
